Origin of the recorded values: patent US5449612A

Tested on: Candida tropicalis
Test: Tests on substrates against Candida tropicalis, colour reading on buffered gelose
Format: cell-based
Conditions: Table II; medium pH 6.0, YNB, glucose, agar, gentamycin
Non-standard residues stand in square brackets, D forms with d. Residues, ends and D or L forms follow the SMILES beside them. *: point of attachment. pNA = O=[N+]([O-])c1ccc(N*)cc1
parameter: Reading at 24 h

molecule	target	Reading at 24 h
N=C(N)NCCC[C@H](NC(=O)[C@@H]1CCCN1C(=O)[C@H]1CCCN1)C(=O)Nc1ccc([N+](=O)[O-])cc1 [H-D-Pro-L-Pro-L-Arg-pNA.2AcOH] (H-[dP]-Pro-Arg-pNA)	Candida tropicalis	++++
N=C(N)NCCC[C@H](NC(=O)[C@@H]1CCCN1C(=O)[C@@H]1CCCN1)C(=O)Nc1ccc([N+](=O)[O-])cc1 [H-L-Pro-L-Pro-L-Arg-pNA.2AcOH] (H-Pro-Pro-Arg-pNA)	Candida tropicalis	++++
N=C(N)NCCC[C@H](NC(=O)[C@H]1CCCN1C(=O)[C@H]1CCCN1)C(=O)Nc1ccc([N+](=O)[O-])cc1 [H-D-Pro-D-Pro-L-Arg-pNA.2AcOH] (H-[dP]-[dP]-Arg-pNA)	Candida tropicalis	-
N=C(N)NCCC[C@H](NC(=O)[C@@H]1CCCN1C(=O)CN)C(=O)Nc1ccc([N+](=O)[O-])cc1 [H-Gly-L-Pro-L-Arg-pNA.2AcOH] (H-Gly-Pro-Arg-pNA)	Candida tropicalis	++++
N=C(N)NCCC[C@H](NC(=O)[C@@H]1CCCN1)C(=O)Nc1ccc([N+](=O)[O-])cc1 [H-L-Pro-L-Arg-pNA.2AcOH] (H-Pro-Arg-pNA)	Candida tropicalis	++

Prompt: Report measured Reading at 24 h; entry is CC(C)C[C@H](N)C(=O)NCC(=O)N[C@@H](CCCNC(=N)N)C(=O)Nc1ccc([N+](=O)[O-])cc1 [H-L-Leu-Gly-L-Arg-pNA.2AcOH] (H-Leu-Gly-Arg-pNA)
Completion: ++++

====

System: Candida krusei
Assay: Tests on substrates against Candida krusei, colour reading on buffered gelose; note: key: -: none; +: weak; ++: moderate; +++: intense; ++++: very intense
Format: cell-based
Conditions: Table IV; medium pH 6.0
Residues, ends and D or L forms follow the SMILES beside them. *: point of attachment. pNA = O=[N+]([O-])c1ccc(N*)cc1; Boc = CC(C)(C)OC(=O)*

compound	target	Reading at 24 h
CC(C)(C)OC(=O)NCC(=O)N1CCC[C@H]1C(=O)N[C@@H](CCCNC(=N)N)C(=O)Nc1ccc([N+](=O)[O-])cc1 [Boc-Gly-L-Pro-L-Arg-pNA.AcOH] (Boc-Gly-Pro-Arg-pNA)	Candida krusei	-
N=C(N)NCCC[C@H](NC(=O)[C@@H]1CCCN1C(=O)CNC(=O)CN)C(=O)Nc1ccc([N+](=O)[O-])cc1 [H-Gly-Gly-L-Pro-L-Arg-pNA.2AcOH] (H-GGPR-pNA)	Candida krusei	++
N=C(N)NCCC[C@H](NC(=O)[C@@H]1CCCN1C(=O)[C@@H]1CCCN1)C(=O)Nc1ccc([N+](=O)[O-])cc1 [H-L-Pro-L-Pro-L-Arg-pNA.2AcOH] (H-Pro-Pro-Arg-pNA)	Candida krusei	-
N=C(N)NCCC[C@H](NC(=O)[C@@H]1CCCN1C(=O)CN)C(=O)Nc1ccc([N+](=O)[O-])cc1 [H-Gly-L-Pro-L-Arg-pNA.2AcOH] (H-Gly-Pro-Arg-pNA)	Candida krusei	++++

====

System: Candida tropicalis
Experiment: Tests on substrates against Candida tropicalis, colour reading on buffered gelose
Format: cell-based
Conditions: Table IV
Residues, ends and D or L forms follow the SMILES beside them. *: point of attachment. pNA = O=[N+]([O-])c1ccc(N*)cc1; Boc = CC(C)(C)OC(=O)*
parameter: Specificity: interference with C. tropicalis

molecule	result
CC(C)(C)OC(=O)NCC(=O)N1CCC[C@H]1C(=O)N[C@@H](CCCNC(=N)N)C(=O)Nc1ccc([N+](=O)[O-])cc1 [Boc-Gly-L-Pro-L-Arg-pNA.AcOH] (Boc-Gly-Pro-Arg-pNA)	(b)
N=C(N)NCCC[C@H](NC(=O)[C@@H]1CCCN1C(=O)[C@@H]1CCCN1)C(=O)Nc1ccc([N+](=O)[O-])cc1 [H-L-Pro-L-Pro-L-Arg-pNA.2AcOH] (H-Pro-Pro-Arg-pNA)	(a)
N=C(N)NCCC[C@H](NC(=O)[C@@H]1CCCN1C(=O)CNC(=O)CN)C(=O)Nc1ccc([N+](=O)[O-])cc1 [H-Gly-Gly-L-Pro-L-Arg-pNA.2AcOH] (H-GGPR-pNA)	(d)
N=C(N)NCCC[C@H](NC(=O)[C@@H]1CCCN1C(=O)CN)C(=O)Nc1ccc([N+](=O)[O-])cc1 [H-Gly-L-Pro-L-Arg-pNA.2AcOH] (H-Gly-Pro-Arg-pNA)	(a)
